Test system: RPMI-8226
Experiment: NCI tumour cell line growth inhibition, 48 h
Active and inactive are the calls of the source. Cut-off read from the data, not from the text of the source: active = GI50 up to about 1.1 µM and inactive = higher.
Reported values of GI50 for individual entries
assay endpoint: GI50

INSERT INTO measurements (compound, reported_measurement) VALUES
  ('CC(C)(C)OC(=O)NCCC1SC2C=CC1C2 (stereo unspecified)', '> 100 µM (inactive)'),
  ('CCOC(=O)CCC(NC(=O)OCc1ccccc1)C(=O)NC(CCC(=O)OCC)C(=O)NC(CCC(=O)OCC)C(=O)NC(CCC(=O)OCC)C(=O)NC(CCC(=O)OCC)C(=O)OCC (stereo unspecified)', '> 100 µM (inactive)'),
  ('O=C(O)C1=CNC(C(=O)O)=NN1', '> 100 µM (inactive)'),
  ('C/C=C/C1=CC(=O)C(O)C1O (stereo unspecified)', '22.1 µM (inactive)'),
  ('N=C(N)NCCCCCCC(=O)NC(O)C(=O)NCCCCNCCCN (stereo unspecified)', '483 µM (inactive)'),
  ('CC1CN=C(N(C(=O)Nc2ccccc2)C2CCCCC2)S1 (stereo unspecified)', '18.8 µM (inactive)');
